system under test: AURKA-TPX2 interaction (His-tagged AURKA123–403 / TAMRA-labelled TPX2 1–43) (Homo sapiens)
experimental protocol: Fluorescence anisotropy (FA) competition assay: displacement of TAMRA-TPX2 1-43 from AURKA123-403
recorded conditions: Average IC50, Supplementary Table 1, FA assay
pIC50: −log10 of the molar value.
value kind: pIC50

molecule: O=C(O)c1cc(-c2cccc(Br)c2)nc2ccc(Cl)cc12
system under test: AURKA-TPX2 interaction (His-tagged AURKA123–403 / TAMRA-labelled TPX2 1–43) (Homo sapiens)
pIC50: 4.46

1: O=C(O)c1cc(-c2cccc(Br)c2)nc2ccccc12
2: O=C(O)c1cc(-c2ccccc2)nc2ccccc12 [compound 3, 2-phenyl-4-carboxyquinoline, reference compound]
Compare pIC50: is it lower for 1 or for 2 ? Respond with the label that goes with your answer.
2
(2: 3.54, 1: 4.59)

---

system under test: AURKA-TPX2 interaction (His-tagged AURKA123–403 / TAMRA-labelled TPX2 1–43) (Homo sapiens)
experimental protocol: Fluorescence anisotropy (FA) competition assay: displacement of TAMRA-TPX2 1-43 from AURKA123-403
recorded conditions: Ki from FA competition assay, free-concentration corrected Cheng-Prusov equations
value kind: Ki (µM)

P: O=C(O)c1ccccc1NC(=O)c1cc(-c2ccccc2)nc2ccccc12
Q: O=C(O)c1cc(-c2ccccc2)nc2ccccc12 [compound 3, 2-phenyl-4-carboxyquinoline, reference compound]
Compare Ki: is it lower for P or for Q ? Respond with the label that goes with your answer.
P
(P: 8.9 µM, Q: 68 µM)

---

system under test: AURKA-TPX2 interaction (His-tagged AURKA123–403 / TAMRA-labelled TPX2 1–43) (Homo sapiens)
Sequence (O14965 123-403): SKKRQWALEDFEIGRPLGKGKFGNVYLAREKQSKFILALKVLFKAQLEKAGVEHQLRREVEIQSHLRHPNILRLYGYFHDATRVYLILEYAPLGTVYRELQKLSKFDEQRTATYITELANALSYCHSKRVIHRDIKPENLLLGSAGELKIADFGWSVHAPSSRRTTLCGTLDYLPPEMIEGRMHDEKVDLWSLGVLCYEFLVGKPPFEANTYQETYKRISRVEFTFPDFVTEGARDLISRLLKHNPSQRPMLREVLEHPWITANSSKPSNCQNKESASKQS
experimental protocol: Fluorescence anisotropy (FA) competition assay: displacement of TAMRA-TPX2 1-43 from AURKA123-403
recorded conditions: Calculated Ki, Supplementary Table 1; free-concentration corrected Cheng-Prusov
pKi: −log10 of the molar value.
value kind: pKi

compound: O=C(O)c1cc(-c2cccc(Br)c2)nc2ccccc12
value observed: 5.26

P: O=C(O)c1cc(-c2ccccc2)nc2ccccc12 [compound 3, 2-phenyl-4-carboxyquinoline, reference compound]
Q: O=C(O)c1cc(-c2cccc(Br)c2)nc2ccc(Cl)cc12
Compare pKi: is it lower for P or for Q ? Respond with the label that goes with your answer.
P

---

system under test: AURKA-TPX2 interaction (His-tagged AURKA123–403 / TAMRA-labelled TPX2 1–43) (Homo sapiens)
experimental protocol: Fluorescence anisotropy (FA) competition assay: displacement of TAMRA-TPX2 1-43 from AURKA123-403
recorded conditions: IC50, inhibition of AURKA:TPX2 interaction in FA assay, Fig. 1b
value kind: IC50 (µM)

1: O=C(O)c1cc(-c2ccccc2)nc2ccccc12 [compound 3, 2-phenyl-4-carboxyquinoline, reference compound]
2: O=C(O)c1ccccc1NC(=O)c1cc(-c2ccccc2)nc2ccccc12
Name the one with the greater IC50 value, either 1 or 2 as given. Respond with the label that goes with your answer.
1
(1: 63 µM, 2: 41 µM)
